Entries and their pIC50 values follow.
Target: Interleukin-1 receptor-associated kinase 4 (Homo sapiens)
Sequence (Q9NWZ3 whole entry): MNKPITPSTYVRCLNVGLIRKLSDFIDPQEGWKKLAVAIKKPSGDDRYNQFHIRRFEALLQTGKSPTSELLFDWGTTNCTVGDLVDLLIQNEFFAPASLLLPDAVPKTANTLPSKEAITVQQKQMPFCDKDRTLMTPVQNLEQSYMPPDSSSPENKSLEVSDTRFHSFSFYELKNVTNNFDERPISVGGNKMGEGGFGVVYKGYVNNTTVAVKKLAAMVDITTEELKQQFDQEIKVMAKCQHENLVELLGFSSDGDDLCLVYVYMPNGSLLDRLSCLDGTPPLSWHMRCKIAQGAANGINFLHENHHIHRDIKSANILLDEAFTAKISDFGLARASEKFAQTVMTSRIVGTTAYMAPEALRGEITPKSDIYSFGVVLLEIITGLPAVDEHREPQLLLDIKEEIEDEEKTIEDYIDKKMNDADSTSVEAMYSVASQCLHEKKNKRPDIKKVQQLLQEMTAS
Experiment: In vitro IRAK-1 and IRAK-4 Assay: Purified recombinant IRAK-4 protein was incubated with 250 uM synthetic peptide([…]) in 30 ul of kinase buffer including (20 mM MOPS pH7.2, 25 mM beta glycerol phosphate, 5 mM EGTA, 1 mM sodium orthovanadate, 1 mM DTT, 50 uM ATP, 20 mM MgCl2, 10 uCi gamma-33P, 0.1% BSA) for the indicated time. For purified recombinant IRAK-1 protein kinase assay, 50 uM ATP was used. A 25 ul aliquot of the reaction mixture was transferred on to p81 phosphocellulose squares (Upstate Biotechnology, Lake Placid, N.Y.). The assay squares were washed three times with 0.75% phosphoric acid and once with acetone. Enzyme activity was measured by determining the bound radioactivity by liquid scintillation counting.
Please treat pIC50 as minus the base-10 logarithm of the molar concentration.

Take a look at these entries with their results.
O=C(Nc1cc(Cl)ccc1OC1CCC(O)CC1)c1cnn2cc(O)cnc12 (stereo not drawn): 7.64
COc1cc2ncccc2cc1NC(=O)c1cnn2cc(O)cnc12: 8.05
O=C(Nc1cc2cccnc2cc1O[C@H]1CC[C@@H](O)CC1)c1csc2cncnc12: 8.15
COc1cc2nc(NCCO)ccc2cc1NC(=O)c1csc2cncnc12: 8.00
CC(O)C1CCN(c2ccc(Cl)cc2NC(=O)c2cnn3cccnc23)CC1 (stereo not drawn): 8.30

Look up pIC50 for this compound: O=C(Nc1cc2cccnc2cc1OC1CCC(O)CC1)c1csc2cncnc12 (stereo not drawn)
7.62

Look up pIC50 for this compound: COc1cc2ncccc2cc1NC(=O)c1csc2cncnc12
7.74

Look up pIC50 for this compound: O=C(Nc1cc2cccnc2cc1N1CCCCC1)c1csc2cncnc12
7.92
